Molecular target: human glucagon receptor (human) (UniProt P47871)
Sequence (P47871 26-477): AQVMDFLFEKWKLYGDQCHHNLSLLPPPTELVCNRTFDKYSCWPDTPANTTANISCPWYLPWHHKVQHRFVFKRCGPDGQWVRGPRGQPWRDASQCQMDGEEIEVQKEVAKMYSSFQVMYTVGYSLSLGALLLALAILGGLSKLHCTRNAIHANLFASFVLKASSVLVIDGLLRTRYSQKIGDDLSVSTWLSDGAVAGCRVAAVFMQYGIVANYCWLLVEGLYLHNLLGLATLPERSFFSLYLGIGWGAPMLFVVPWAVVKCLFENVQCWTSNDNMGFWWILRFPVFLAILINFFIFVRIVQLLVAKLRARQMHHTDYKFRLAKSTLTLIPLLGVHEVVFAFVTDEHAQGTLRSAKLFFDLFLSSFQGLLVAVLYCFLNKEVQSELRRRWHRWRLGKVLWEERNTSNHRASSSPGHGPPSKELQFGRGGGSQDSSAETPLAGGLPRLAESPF
Test: cell-based or functional assay
OBSERVED_PROPERTY: cAMP EC50

Recorded cAMP EC50, per entry:
>  <BINDER>
IP333 (Fc fusion) YSEGTFISDYSIALAAAAQQDFVNWLLKGGGGGGGSGGGGSGGGGSGGGGSGGGGSGGGGSA

>  <TEST_VALUE>
> 1.08 µM

$$$$
>  <BINDER>
IP394 (Fc fusion) YSEGMHTSDLSKLLERQAIDEFIAWLLKGGAAAGGSGSTASSGSGSATGGGGAATHTCPPC

>  <TEST_VALUE>
> 17.6 µM

$$$$
>  <BINDER>
IP350 (Fc fusion) YSEGTFTSDYSKLLERQAIDEFIAGLLKGGGGGGGSGGGGSGGGGSGGGGSGGGGSGGGGSA

>  <TEST_VALUE>
> 1.36 µM

$$$$
>  <BINDER>
IP366 (Fc fusion) YSEGTFTSDYRMLKERQAIDEFIAWLLKGGAAAGGSGSTASSGSGSATGGGGAATHTCPPC

>  <TEST_VALUE>
> 10.2 µM

$$$$

Request: Endpoint output: cAMP EC50 of IP312 (Fc fusion) YSEGTFISDVSSYMERQAIDEFIAWLLKGGAAAGGSGSTASSGSGSATGGGGAATHTCPPC . Value?
Result: > 5.31 µM

Each recorded value in this set is attributed to patent US20160185837A1.
